All figures here come from ChEMBL document CHEMBL4152211.

target: Prostaglandin G/H synthase 2 (Homo sapiens) (UniProt P35354); assay: Inhibition of human recombinant COX2 at 10 uM using arachidonic acid as substrate preincubated for 5 mins followed by substrate addition and measured after 2 mins by ADPH probe-based fluorescence assay relative to control
experimental_readout: inhibition (%)

Sample answers from the record:
Q: Report inhibition for CS(=O)(=O)c1ccc(NC(=O)NNC(=S)Nc2ccc(Cl)cc2)cc1 please.
A: 70

Q: How about this compound: CS(=O)(=O)c1ccc(NC(=O)NNC(=S)Nc2ccccc2)cc1
A: 50

Q: How about this compound: Cc1ccc(NC(=S)NNC(=O)Nc2ccc(S(C)(=O)=O)cc2)cc1
A: 75

Q: How about this compound: CS(=O)(=O)c1ccc(NC(=O)NNC(=S)NCCc2ccccc2)cc1
A: 22

Q: How about this compound: CS(=O)(=O)c1ccc(NC(=O)NNC(=S)Nc2c(F)cccc2F)cc1
A: 62

P = COc1ccc(NC(=S)NNC(=O)Nc2ccc(S(C)(=O)=O)cc2)cc1
Q = CS(=O)(=O)c1ccc(NC(=O)NNC(=S)NCc2ccccc2)cc1
R = CCNC(=S)NNC(=O)Nc1ccc(S(C)(=O)=O)cc1
Q: Order the 3 compounds from highest to lowest inhibition. Provide the ranking by listing each label in its place in the requested order.
A: P, R, Q

----------
molecular target: Prostaglandin G/H synthase 2 (Homo sapiens); assay: Inhibition of human recombinant COX2 using arachidonic acid as substrate preincubated for 5 mins followed by substrate addition and measured after 2 mins by ADPH probe-based fluorescence assay
Sequence (P35354 whole entry): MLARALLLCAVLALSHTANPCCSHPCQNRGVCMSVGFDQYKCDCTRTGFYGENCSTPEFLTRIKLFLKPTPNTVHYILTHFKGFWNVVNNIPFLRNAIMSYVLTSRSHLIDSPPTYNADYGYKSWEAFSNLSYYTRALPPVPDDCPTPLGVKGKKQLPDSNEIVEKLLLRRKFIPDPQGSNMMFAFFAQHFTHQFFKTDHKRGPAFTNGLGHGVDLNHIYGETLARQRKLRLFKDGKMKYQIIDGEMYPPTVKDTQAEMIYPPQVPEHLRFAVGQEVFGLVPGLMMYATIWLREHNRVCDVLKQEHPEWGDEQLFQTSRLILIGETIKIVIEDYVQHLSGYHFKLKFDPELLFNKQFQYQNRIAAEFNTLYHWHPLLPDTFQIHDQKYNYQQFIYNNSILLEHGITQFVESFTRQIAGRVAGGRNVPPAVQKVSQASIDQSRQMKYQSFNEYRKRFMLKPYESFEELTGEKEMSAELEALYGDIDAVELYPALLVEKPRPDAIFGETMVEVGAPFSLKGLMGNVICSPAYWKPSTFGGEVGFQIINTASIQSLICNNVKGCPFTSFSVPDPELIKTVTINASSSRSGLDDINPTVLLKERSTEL
pIC50: −log10 of the molar value.
experimental_readout: pIC50

Q: Report pIC50 for Cc1cccc(C)c1NC(=S)NNC(=O)Nc1ccc(S(C)(=O)=O)cc1 please.
A: 5.50

Q: How about this compound: CS(=O)(=O)c1ccc(NC(=O)NNC(=S)Nc2ccc(F)cc2)cc1
A: 4.90

Q: How about this compound: CS(=O)(=O)c1ccc(NC(=O)NNC(=S)Nc2ccc(Cl)cc2)cc1
A: 5.27

Q: How about this compound: COc1ccc(NC(=S)NNC(=O)Nc2ccc(S(C)(=O)=O)cc2)cc1
A: 5.15

P = CS(=O)(=O)c1ccc(NC(=O)NNC(=S)Nc2c(F)cccc2F)cc1
Q = Cc1ccc(NC(=S)NNC(=O)Nc2ccc(S(C)(=O)=O)cc2)cc1
R = CS(=O)(=O)c1ccc(NC(=O)NNC(=S)Nc2ccccc2)cc1
Q: Order the 3 compounds from highest to lowest pIC50. Provide the ranking by listing each label in its place in the requested order.
A: Q, P, R
(Q: 5.67, P: 5.19, R: 4.89)

----------
target: Prostaglandin G/H synthase 2 (Homo sapiens) (UniProt P35354); experiment: Inhibition of human recombinant COX2 at 10 uM using arachidonic acid as substrate preincubated for 5 mins followed by substrate addition and measured after 2 mins by ADPH probe-based fluorescence assay relative to control
experimental_readout: inhibition (%)

Q: Report inhibition for CS(=O)(=O)c1ccc(NC(=O)NNC(=S)Nc2ccc(F)cc2)cc1 please.
A: 54

Q: How about this molecule: Cc1cccc(C)c1NC(=S)NNC(=O)Nc1ccc(S(C)(=O)=O)cc1
A: 64

Q: How about this molecule: CS(=O)(=O)c1ccc(NC(=O)NNC(=S)Nc2cccc(Cl)c2Cl)cc1
A: 46
